Target: endogenous NNMT in U2OS cells (Homo sapiens)
Construct: endogenous in cells
Sequence (P40261 1-264): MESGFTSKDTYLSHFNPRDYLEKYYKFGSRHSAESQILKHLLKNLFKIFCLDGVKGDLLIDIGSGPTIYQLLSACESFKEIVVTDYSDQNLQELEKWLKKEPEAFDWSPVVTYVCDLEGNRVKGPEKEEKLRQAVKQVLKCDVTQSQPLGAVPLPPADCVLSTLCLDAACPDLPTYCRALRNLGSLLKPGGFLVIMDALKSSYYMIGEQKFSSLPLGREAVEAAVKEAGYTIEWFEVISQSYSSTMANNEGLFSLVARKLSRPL
Experiment: Cell based U2OS assay (endogenous NNMT, MNA by LC–MS/MS)
Settings: 24 h treatment, read-out: Cell based inhibition in U2OS EC50
List of EC50 values.
Kindly answer with a numeric value in nM, unit omitted.

Recorded EC50, per entry:
- Br.CN1Cc2cc(F)cc3c2N(CCO3)C1=N [Compound (18)]: 2500
- CN1Cc2cc(F)cc3c2N(CCC3)C1=N [Compound (2)]: 2200
- CN1Cc2cccc3c2N(CCC3)C1=N [Compound (1)]: 2500

Could you now consider this next molecule?
Give the measured EC50 of CN1Cc2cc(F)cc3c2N(CC3)C1=N [Compound (8)] .
1100

====

Molecular target: mouse NNMT (Mus musculus)
Sequence (O55239 whole entry): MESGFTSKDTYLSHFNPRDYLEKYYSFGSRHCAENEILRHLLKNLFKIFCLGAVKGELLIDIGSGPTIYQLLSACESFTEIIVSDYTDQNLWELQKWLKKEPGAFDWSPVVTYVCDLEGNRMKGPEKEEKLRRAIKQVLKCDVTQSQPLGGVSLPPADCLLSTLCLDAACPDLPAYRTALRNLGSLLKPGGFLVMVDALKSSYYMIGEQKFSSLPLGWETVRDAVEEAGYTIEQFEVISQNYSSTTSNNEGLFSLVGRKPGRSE
Assay: Fluorescence based NNMT enzymatic assay (mouse)
Conditions: recombinant mouse NNMT, fluorescence of an MNA derivative; read-out: mNNMT IC50
List of IC50 values.

Give the measured IC50 of "Br.CN1Cc2c(F)c(F)cc3c2N(CC3)C1=N" .
> 3000 nM

Give the measured IC50 of "CN1Cc2cc(F)cc3c2N(CCC3)C1=N" .
330 nM

Give the measured IC50 of "CN1Cc2cccc3c2N(CCN3C#N)C1=N" .
720 nM

Give the measured IC50 of "CN1Cc2cccc3c2N(CCO3)C1=N" .
380 nM

====

List of IC50 values.
Biological target: UniProt P40261
Assay: Fluorescence based NNMT enzymatic assay (human)
Conditions: recombinant human NNMT, fluorescence of an MNA derivative; read-out: hNNMT IC50

Recorded IC50, per entry:
• CN1Cc2cccc3c2N(CCCC3)C1=N = > 30 µM
• Br.N=C1N(CCCc2ccccc2F)Cc2cccc3c2N1CCO3 = > 30 µM
• CN(C)C(=O)N1CCN2C(=N)N(C)Cc3cccc1c32 = > 30 µM
• CN1Cc2cc(F)cc3c2N(CCN3C)C1=N = > 3 µM
• CN1Cc2nn(C)c3c2N(CCC3)C1=N = > 30 µM
• CN1Cc2cccc3c2N(CCN3C)C1=N = > 30 µM
• Br.N=C1N(CC(F)(F)F)Cc2cc(F)cc3c2N1CCO3 = > 30 µM
• CN1CCc2cccc3c2N(CC3)C1=N = > 3 µM
• CN1Cc2cccc3ccn(c23)C1=N = > 30 µM
• CC(=O)N1CCN2C(=N)N(C)Cc3cccc1c32 = > 30 µM

Give the measured IC50 of "CN1Cc2cccc3cccc(c23)C1=N" .
> 10 µM

Give the measured IC50 of "CN1Cc2c3c(nn2C)CCCN3C1=N" .
> 30 µM

Give the measured IC50 of "CN1Cc2ccc(F)c3c2N(CC3)C1=N" .
> 1 µM

====

Biological target: endogenous NNMT in U2OS cells (Homo sapiens, UniProt P40261)
Construct: endogenous in cells
Sequence (P40261 1-264): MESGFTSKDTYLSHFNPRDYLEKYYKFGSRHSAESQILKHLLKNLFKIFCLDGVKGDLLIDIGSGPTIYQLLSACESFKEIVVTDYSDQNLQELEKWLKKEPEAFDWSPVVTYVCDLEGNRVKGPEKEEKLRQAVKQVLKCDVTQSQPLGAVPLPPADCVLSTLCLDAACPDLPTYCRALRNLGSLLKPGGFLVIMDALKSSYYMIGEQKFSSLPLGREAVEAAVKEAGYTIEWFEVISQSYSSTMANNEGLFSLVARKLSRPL
Assay: Cell based U2OS assay (endogenous NNMT, MNA by LC–MS/MS)
Settings: 24 h treatment, read-out: Cell based inhibition in U2OS EC50
List of EC50 values.

Recorded EC50, per entry:
- Br.CN1Cc2c(F)c(F)cc3c2N(CC3)C1=N: > 3 µM
- CN1Cc2cccc3c2N(CCS3)C1=N: > 10 µM

Could you now consider this next molecule?
Give the measured EC50 of "CN1Cc2c(F)c(F)cc3c2N(CCC3)C1=N" .
> 3 µM

====

Target: mouse NNMT (Mus musculus)
Experiment: Fluorescence based NNMT enzymatic assay (mouse)
Conditions: recombinant mouse NNMT, fluorescence of an MNA derivative; read-out: mNNMT IC50
Mark each entry TRUE if its IC50 sits below 800 nM, and FALSE for all others.

• Br.CN1Cc2cc(F)cc3c2N(CCO3)C1=N = FALSE
• CN1Cc2c(F)c(F)cc3c2N(CCC3)C1=N = FALSE
• CN1Cc2cccc3c2N(CCC3)C1=N = TRUE
• CN1Cc2cc(F)cc3c2N(CC3)C1=N = FALSE
• CN1Cc2cccc3c2N(CCS3)C1=N = TRUE

Attention now shifts to the item below.
Hi there! Is IC50 for "CN1Cc2cncc3c2N(CCC3)C1=N" below 800 nM, do you know?
TRUE
